target: Recombinant SHP-1 protein (Homo sapiens); test: SHP-1 phosphatase activity assay (RediPlate 96 EnzChek Tyrosine Phosphatase Assay kit); format: biochemical; conditions: SC derivatives at 1 μM for 2 hr; recombinant SHP-1 25 ng; control DMSO = 100; mean±SD (N=3)
Measurement Label: SHP-1 Activity (% of control)

[
  {
    "Compound": "N#CCc1ccc(NC(=O)N2CCOc3cc(Oc4ccc(C#N)cc4)ccc32)cc1",
    "SHP-1 Activity (% of control)": "110.58 ± 10.14 % of control"
  },
  {
    "Compound": "C#Cc1cccc(NC(=O)N2CCOc3cc(Oc4ccc(C#N)cc4)ccc32)c1",
    "SHP-1 Activity (% of control)": "141.39 ± 15.44 % of control"
  },
  {
    "Compound": "N#Cc1ccc(Oc2ccc3cccc(NC(=O)Nc4cccc5ccc(Oc6ccc(C#N)cc6)cc45)c3c2)cc1",
    "SHP-1 Activity (% of control)": "102.24 ± 17.36 % of control"
  },
  {
    "Compound": "Cc1ccc(NC(=O)Nc2ccc(C)c(Oc3cnc(C#N)c(F)c3)c2)cc1Oc1cnc(C#N)c(F)c1",
    "SHP-1 Activity (% of control)": "139.74 ± 4.92 % of control"
  },
  {
    "Compound": "N#Cc1ccc(Oc2ccc3c(c2)OCCN3C(=O)Nc2ccc(Cl)c(C(F)(F)F)c2)cc1",
    "SHP-1 Activity (% of control)": "169.27 ± 1.19 % of control"
  }
]

Now examine the next entry.
Tell me SHP-1 Activity (% of control) reported for N#Cc1ccc(Oc2cc(NC(=O)Nc3ccc(F)c(C(F)(F)F)c3)ccc2F)cc1
115.12 ± 3.84 % of control

====

tested on: PLC5 cells (a hepatocellular carcinoma cell line); experiment: Cytotoxicity, MTT cell viability assay; type: cell-based; settings: 72 h exposure
// reported pIC50 per item
Friendly reminder that pIC50 comes from taking -log10 of the concentration in mol/L.

Sample answers from the record:
[
  {
    "Smiles Structure": "N#Cc1ccc(Oc2cc(NC(=O)Nc3ccc(Cl)c(C(F)(F)F)c3)ccc2F)cc1",
    "Target Entity": "PLC5 cells (a hepatocellular carcinoma cell line)",
    "Measurement Label": "pIC50",
    "Measured Number": 6.62
  },
  {
    "Smiles Structure": "Cc1cc(Oc2cc(NC(=O)Nc3cc(C(F)(F)F)cc(C(F)(F)F)c3)ccc2Cl)ccc1C#N",
    "Target Entity": "PLC5 cells (a hepatocellular carcinoma cell line)",
    "Measurement Label": "pIC50",
    "Measured Number": 6.19
  },
  {
    "Smiles Structure": "C#Cc1cccc(NC(=O)Nc2ccc(F)c(Oc3ccc(C#N)cc3)c2)c1",
    "Target Entity": "PLC5 cells (a hepatocellular carcinoma cell line)",
    "Measurement Label": "pIC50",
    "Measured Number": 5.65
  }
]

Now examine the next entry.
Tell me pIC50 reported for Cc1ccc(NC(=O)Nc2ccc(Cl)c(C(F)(F)F)c2)cc1Oc1ccc(C#N)c2ccccc12
6.12

====

// reported SHP-1 Activity (% of control) per item
molecular target: Recombinant SHP-1 protein (Homo sapiens, UniProt P29350); assay: SHP-1 phosphatase activity assay (RediPlate 96 EnzChek Tyrosine Phosphatase Assay kit); type: biochemical; details: SC derivatives at 1 μM for 2 hr; recombinant SHP-1 25 ng; control DMSO = 100; mean±SD (N=3)
Sequence (P29350 whole entry): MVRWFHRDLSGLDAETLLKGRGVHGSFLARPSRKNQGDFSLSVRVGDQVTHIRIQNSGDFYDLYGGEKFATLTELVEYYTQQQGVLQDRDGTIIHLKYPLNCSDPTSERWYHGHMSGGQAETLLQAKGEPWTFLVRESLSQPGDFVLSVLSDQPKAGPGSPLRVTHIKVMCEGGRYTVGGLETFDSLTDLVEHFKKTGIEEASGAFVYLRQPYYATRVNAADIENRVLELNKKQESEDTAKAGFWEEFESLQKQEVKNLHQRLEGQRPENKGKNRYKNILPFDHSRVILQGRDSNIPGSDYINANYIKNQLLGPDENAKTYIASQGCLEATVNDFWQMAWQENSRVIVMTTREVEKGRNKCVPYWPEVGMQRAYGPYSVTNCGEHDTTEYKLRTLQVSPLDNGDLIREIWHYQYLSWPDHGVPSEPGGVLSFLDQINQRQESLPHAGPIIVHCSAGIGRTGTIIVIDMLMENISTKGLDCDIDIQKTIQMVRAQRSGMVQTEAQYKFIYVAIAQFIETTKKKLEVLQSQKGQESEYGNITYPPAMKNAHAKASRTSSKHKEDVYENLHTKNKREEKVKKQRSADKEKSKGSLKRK

// fetch SHP-1 Activity (% of control) for N#Cc1ccc(Oc2cc(NC(=O)Nc3ccc(F)c(C(F)(F)F)c3)ccc2Cl)cc1 ; system: Recombinant SHP-1 protein (Homo sapiens, UniProt P29350)
180.35 ± 35 % of control

// fetch SHP-1 Activity (% of control) for N#CCc1ccc(NC(=O)Nc2cc(Oc3ccc(C#N)cc3)ccc2F)cc1 ; system: Recombinant SHP-1 protein (Homo sapiens, UniProt P29350)
139.68 ± 6.63 % of control

====

// reported IC50 per item
test system: PLC5 cells (a hepatocellular carcinoma cell line); assay: Cytotoxicity, MTT cell viability assay; format: cell-based; conditions: 72 h exposure
Please give a number only; it is taken to be in nM.

[
  {
    "Smiles Structure": "Cc1cc(Oc2cc(NC(=O)Nc3ccc(Cl)c(C(F)(F)F)c3)ccc2Cl)ccc1C#N",
    "Measured Number": 1200
  }
]

Tell me IC50 reported for N#CCc1ccc(NC(=O)Nc2ccc(F)c(Oc3ccc(C#N)cc3)c2)cc1
1830

Tell me IC50 reported for N#Cc1ccc(Oc2ccc3c(c2)N(C(=O)Nc2ccc(F)c(C(F)(F)F)c2)CCO3)cc1
1870

Tell me IC50 reported for Cc1ccc(NC(=O)Nc2ccc(Cl)c(C(F)(F)F)c2)cc1Oc1ccc(C#N)cc1
440

Tell me IC50 reported for C#Cc1cccc(NC(=O)N2CCOc3cc(Oc4ccc(C#N)cc4)ccc32)c1
3060

====

Test system: PLC5 cells (a hepatocellular carcinoma cell line)
Test: Cytotoxicity, MTT cell viability assay
Format: cell-based
Settings: 72 h exposure
Procedure: PLC5 cells (a hepatocellular carcinoma cell line) were seeded at 5×10^3 cells per well in 96-well plates. Then, cells were exposed to SC derivatives at the indicated doses for 72 h. After that, cells were incubated with MTT (1 mg/ml) (Sigma-Aldrich, St. Louis, Mo.) for 2 h at 37° C. Cell viability was then assessed by measuring the absorbance at 570 nm using a microplate reader.
// reported IC50 per item
Please give a number only; it is taken to be in nM.

Sample answers from the record:
[
  {
    "Molecule": "C#Cc1cccc(NC(=O)Nc2cccc(Oc3ccc(C#N)cc3)c2)c1 [compound 65]",
    "IC50, nM": 1410
  },
  {
    "Molecule": "Cc1ccc(NC(=O)Nc2ccc(Cl)c(C(F)(F)F)c2)cc1Oc1ccc(C#N)c(F)c1 [compound 88]",
    "IC50, nM": 1050
  },
  {
    "Molecule": "N#CCc1ccc(NC(=O)Nc2ccc(Cl)c(Oc3ccc(C#N)cc3)c2)cc1 [compound 149]",
    "IC50, nM": 1380
  },
  {
    "Molecule": "N#Cc1ccc(Oc2cc(NC(=O)Nc3ccc(F)c(C(F)(F)F)c3)ccc2Cl)cc1Cl [compound 181]",
    "IC50, nM": 930
  }
]

Tell me IC50 reported for N#Cc1ccc(Oc2cc(NC(=O)Nc3ccc(F)c(C(F)(F)F)c3)ccc2Cl)cc1 [compound 137]
490

Tell me IC50 reported for N#Cc1ccc(Oc2cc(NC(=O)Nc3ccc(F)c(Oc4ccc(C#N)cc4)c3)ccc2F)cc1 [compound 112]
490

Tell me IC50 reported for N#Cc1ccc(Oc2cc(NC(=O)Nc3cccc(C(F)(F)F)c3)ccc2F)cc1 [compound 151]
590

Tell me IC50 reported for N#Cc1ccc(Oc2ccc(F)c(NC(=O)Nc3cc(C(F)(F)F)cc(C(F)(F)F)c3)c2)cn1 [compound 183]
530

====

tested on: PLC5 cells (a hepatocellular carcinoma cell line); experiment: Cytotoxicity, MTT cell viability assay; format: cell-based; settings: 72 h exposure
pIC50: −log10 of the molar value.
Measurement Label: pIC50

[
  {
    "Smiles Structure": "C#Cc1cccc(NC(=O)N2CCOc3ccc(Oc4ccc(C#N)cc4)cc32)c1",
    "pIC50": "< 5.00"
  },
  {
    "Smiles Structure": "N#CCc1ccc(Oc2ccc(NC(=O)Nc3cccc(C(F)(F)F)c3)cc2)cc1",
    "pIC50": "< 5.00"
  }
]

Now examine the next entry.
Tell me pIC50 reported for C#Cc1cccc(NC(=O)Nc2ccc(C)c(Oc3ccc(C#N)cc3)c2)c1
< 5.00

====

// reported SHP-1 Activity (% of control) per item
target: Recombinant SHP-1 protein (Homo sapiens, UniProt P29350); test: SHP-1 phosphatase activity assay (RediPlate 96 EnzChek Tyrosine Phosphatase Assay kit); assay type: biochemical; details: SC derivatives at 1 μM for 2 hr; recombinant SHP-1 25 ng; control DMSO = 100; mean±SD (N=3)

[
  {
    "Molecule": "N#Cc1ccc(Oc2ccc(Cl)c(NC(=O)Nc3ccc(Cl)c(C(F)(F)F)c3)c2)cc1",
    "Target Entity": "Recombinant SHP-1 protein (Homo sapiens, UniProt P29350)",
    "Measurement Label": "SHP-1 Activity (% of control)",
    "Result": "249.66 ± 5.81 % of control"
  }
]

Tell me SHP-1 Activity (% of control) reported for C#Cc1cccc(NC(=O)Nc2cccc(Oc3ccc(C#N)cc3)c2)c1
84.35 ± 22.40 % of control

Tell me SHP-1 Activity (% of control) reported for N#Cc1ccc(Oc2cc(NC(=O)Nc3ccc(Cl)c(C(F)(F)F)c3)ccc2F)cc1
156.55 ± 5.99 % of control

Tell me SHP-1 Activity (% of control) reported for N#Cc1ccc(Oc2ccc(NC(=O)Nc3ccc(Oc4ccc(C#N)cc4)cc3F)c(F)c2)cc1
147.13 ± 8.51 % of control
